src = patent US20080139596A1

System: Con1 replicon carrying the adaptive mutation S2204I (SI)
Assay type: cell-based, Hepatitis C virus
Details: SI replicon (low amounts of hyperphosphorylated NS5A); 10A-IFN cells; 4 days; Cell-ELISA; read-out: IC50, inhibition of HCV replication

{"columns": ["entry_smiles", "target", "IC50 (nM)"],
 "data": [
  ["CN1CCC(c2nc(-c3ccncc3)c(-c3ccc(F)cc3)[nH]2)CC1", "Con1 replicon carrying the adaptive mutation S2204I (SI)", 500],
  ["CNc1nccc(-c2[nH]c(C3CCNCC3)nc2-c2cccc(C(F)(F)F)c2)n1", "Con1 replicon carrying the adaptive mutation S2204I (SI)", 500]
]}
